Recorded measurements of % of compound remaining when incubated in rat liver microsomes with NADPH, one per entry
Assay: In vitro microsomal stability, rat
Assay type: in vitro ADME
Settings: 10 min
Reply numerically in %, unit not repeated.

For the molecule CC(C)(C)C[C@H]1N[C@@H](C(=O)NC2CC(O)C2)[C@H](c2cccc(Cl)c2F)[C@@]12C(=O)Nc1cc(Cl)ccc12 (stereo partly shown) , what % of compound remaining when incubated in rat liver microsomes with NADPH is on record?
63.72

Follow-up item: CC(C)(C)C[C@H]1N[C@@H](C(=O)N[C@H]2C[C@@H](O)C2)[C@H](c2cccc(Cl)c2F)[C@@]12C(=O)Nc1cc(Cl)ccc12 (stereo in doubt)
53.79

Follow-up item: CC(C)(C)C[C@H]1N[C@@H](C(=O)N[C@H]2C[C@@](C)(O)C2)[C@H](c2cccc(Cl)c2F)[C@@]12C(=O)Nc1cc(Cl)ccc12
64.86

Follow-up item: CC(O)C(O)CCNC(=O)[C@@H]1N[C@H](CC(C)(C)C)[C@]2(C(=O)Nc3cc(Cl)c(F)cc32)[C@H]1c1cccc(Cl)c1 (stereo partly shown)
65.69

* * *

Tested on: cancer cell lines with wild-type p53 / mutated or deleted p53 (ATCC)
Test: Cell growth assay (WST-8), other cancer cell lines
Format: cell-based
Conditions: Homo sapiens, PC-3, Table 19A; PC-3 cells, deleted p53, cell growth; read-out: PC-3 (deleted p53) IC50
Recorded measurements of IC50, one per entry
Reply numerically in µM, unit not repeated.

Solved cases below.
CC(C)(C)C[C@H]1N[C@@H](C(=O)NCCN2CCN(S(C)(=O)=O)CC2)[C@H](c2cccc(Cl)c2F)[C@@]12C(=O)Nc1cc(Cl)ccc12: 8.1
CC(C)(C)C[C@H]1N[C@@H](C(=O)NCCN2CCNCC2)[C@H](c2cccc(Cl)c2)[C@@]12C(=O)Nc1cc(Cl)c(F)cc12: 4.1
CC(C)(C)C[C@H]1N[C@@H](C(=O)NCCCN2CCCC2)[C@H](c2cccc(Cl)c2F)[C@@]12C(=O)Nc1cc(Cl)ccc12: 3.4

Now for a further compound.
For the compound CC(C)(C)C[C@H]1N[C@@H](C(=O)NCC[C@H]2CC[C@H](NS(C)(=O)=O)C2)[C@H](c2cccc(Cl)c2F)[C@@]12C(=O)Nc1cc(Cl)c(F)cc12 , what IC50 is on record?
5.9

* * *

Test: Pharmacokinetic studies in rats
Format: in vivo, rat
Details: rat, plasma; male rats, oral dose 15 mg/kg
Recorded measurements of bioavailability, one per entry
Reply numerically in %, unit not repeated.

Solved cases below.
CC(C)(C)C[C@H]1N[C@@H](C(=O)NCC[C@H](O)CNC(C)(C)C)[C@H](c2cccc(Cl)c2)[C@@]12C(=O)Nc1cc(Cl)c(F)cc12: 1.1
CC(C)(C)C[C@H]1N[C@@H](C(=O)NCCC(C)(O)CO)[C@H](c2cccc(Cl)c2)[C@@]12C(=O)Nc1cc(Cl)c(F)cc12 (stereo partly shown): 38

Now for a further compound.
For the compound CC(C)(C)C[C@H]1N[C@@H](C(=O)NCC[C@H](O)CN2CCCC2)[C@H](c2cccc(Cl)c2)[C@@]12C(=O)Nc1cc(Cl)c(F)cc12 , what bioavailability is on record?
8.4

* * *

Tested on: cancer cell lines with wild-type p53 / mutated or deleted p53 (ATCC)
Test: Cell growth assay (WST-8), other cancer cell lines
Type: cell-based
Details: Homo sapiens, PC-3, Table 19D; PC3 cells; read-out: PC3 IC50
parameter.measured: IC50 (µM)
Reply numerically in µM, unit not repeated.

CC(C)(C)C[C@H]1N[C@@H](C(=O)NCCCO)[C@H](c2cccc(Cl)c2)[C@@]12C(=O)Nc1cc(Cl)c(F)cc12: 9.2

Now for a further compound.
For the compound CC(C)(C)C[C@H]1N[C@@H](C(=O)NC2CCN(CC(F)F)CC2)[C@H](c2cccc(Cl)c2F)[C@@]12C(=O)Nc1cc(Cl)ccc12 , what IC50 is on record?
6.89
